Listed next: entries and their corresponding Percent Effect.
Molecular target: Arginase-2, mitochondrial (Homo sapiens)
Sequence (whole entry): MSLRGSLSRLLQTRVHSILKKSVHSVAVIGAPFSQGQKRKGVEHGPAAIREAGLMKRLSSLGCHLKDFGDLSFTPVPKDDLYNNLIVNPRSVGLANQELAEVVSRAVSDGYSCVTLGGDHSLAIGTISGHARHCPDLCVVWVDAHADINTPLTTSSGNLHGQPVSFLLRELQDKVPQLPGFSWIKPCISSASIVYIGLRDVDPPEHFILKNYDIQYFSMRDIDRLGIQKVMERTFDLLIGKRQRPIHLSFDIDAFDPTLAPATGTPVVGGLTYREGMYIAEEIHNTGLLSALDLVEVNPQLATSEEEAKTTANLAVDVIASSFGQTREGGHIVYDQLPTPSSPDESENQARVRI
Assay: in vitro enzyme assay to detect the production of urea directly proportional to the activity of Arginase II
Format: functional
Set-up: scale not given: direction of the effect not stated beside the values
Conditions: 30 µM
Reply numerically in %, unit not repeated.

Illustrative cases are given below, each with its answer.
COMPOUND	Percent Effect / %
Cc1ccccc1-c1cncc(C2CCN(C(=O)CN(C)C)CC2)n1	-1.62
COc1cc(C(=O)N(CCC#N)Cc2ccccn2)cc(OC)c1C	2.7
CCC(C(=O)NCc1ccncc1)N(c1cccc(C)c1)S(C)(=O)=O (stereo not drawn)	10.3

Attention now turns to another entry.
Report Percent Effect for COc1ccc(C2SC(C)=Nc3c2c(=O)[nH]n3C2CCCCC2)cc1O (stereo not drawn) please.
-3.78

###

Listed next: entries and their corresponding Percent Effect.
species on record: Homo sapiens; experiment: To identify inhibition of the IFN signalling (Jak-Stat) pathway via expression of an eGFP reporter gene under the control of an IFN-stimulated response element (ISRE) containing MxA promoter.; assay type: functional; set-up: scale not given: direction of the effect not stated beside the values; conditions: 30 µM
Reply numerically in %, unit not repeated.

Illustrative cases are given below, each with its answer.
COMPOUND	UNIT_OF_MEASURE	Percent Effect
CC(Oc1ccccc1C(F)(F)F)C(=O)NCC(N)=O (stereo unspecified)	%	-26.2
CNC(=O)CCNC(=O)c1cccc(Cn2nc(C)cc2C)c1	%	15.9
Cc1nn(C)c(C)c1C1CCCN1Cc1nc(-c2ccco2)no1 (stereo unspecified)	%	26.2

Report Percent Effect for `O=C(CCNS(=O)(=O)c1ccccc1)NCc1ccoc1` please.
12.9

Report Percent Effect for `CCN(CC)C(=O)CCc1c(C)nc2cc(O)nn2c1C` please.
3.53

Report Percent Effect for Cc1nnc(CN2CCC(N(C)Cc3nnc(C4CC4)n3C)C2)o1 (stereo unspecified) please.
20.7

###

biological target: Arginase-2, mitochondrial (Homo sapiens) (UniProt P78540); assay: in vitro enzyme assay to detect the production of urea directly proportional to the activity of Arginase II; type: functional; design: scale not given: in the data most compounds retested in dose-response had high values; settings: 33.3 µM
EXPERIMENTAL_READOUT: Percent Effect (%)
Reply numerically in %, unit not repeated.

COMPOUND	TGT	UNIT_OF_MEASURE	Percent Effect
c1cc(CNCC2CNc3ccnn3C2)cc(N2CCCCC2)n1 (centres undefined)	Arginase-2, mitochondrial (Homo sapiens) (UniProt P78540)	%	-2.8
O=C(CCc1nccs1)N1CCN(c2ccccc2F)CC1	Arginase-2, mitochondrial (Homo sapiens) (UniProt P78540)	%	-6.46
CCN(CC1CCOC1)C(=O)c1cccnc1N1CCOCC1 (centres undefined)	Arginase-2, mitochondrial (Homo sapiens) (UniProt P78540)	%	-1.8

Report Percent Effect for `NCc1cnn(-c2ccccc2C(=O)NCCCn2ccnc2)c1` please.
-1.16

Report Percent Effect for `O=C(NCc1cc[nH]n1)N1CCN(c2ccccc2Cl)CC1` please.
-0.719

Report Percent Effect for `O=C([C@@H]1COC[C@H]2CN(C3CCOCC3)C[C@H]21)N1CCCCO1` please.
-46.4

Report Percent Effect for CC(C)N(C)CC(=O)NC1CCc2nccn2C1 (centres undefined) please.
-5.21

Report Percent Effect for COC(=O)C(c1cc(F)ccc1F)N(C)C(=O)c1ccnc(C)n1 (centres undefined) please.
0.645

Report Percent Effect for `CCN(C)c1ncnc2c1CCN(C(=O)c1ccno1)CC2` please.
-46.4

Report Percent Effect for `CC(C)N(C)Cc1cn2c(n1)CN(Cc1ccsc1)CC2` please.
-3.19

Report Percent Effect for `CCn1c(CN2CCN(CC(N)=O)CC2)nc2c(F)cccc21` please.
-2.3

Report Percent Effect for Cc1nc(C2CCCN(C(=O)c3scnc3C)C2)no1 (centres undefined) please.
1.77

###

target: Chromo domain-containing protein 1 (Saccharomyces cerevisiae (strain ATCC 204508 / S288c) (Baker's yeast)) (UniProt P32657); assay: ScCHD-1 Enzyme Inhibition Assay; format: functional; parameters: scale not given: in the data most compounds retested in dose-response had high values; details: 30 µM
Sequence (P32657 whole entry, the tested form may be a part): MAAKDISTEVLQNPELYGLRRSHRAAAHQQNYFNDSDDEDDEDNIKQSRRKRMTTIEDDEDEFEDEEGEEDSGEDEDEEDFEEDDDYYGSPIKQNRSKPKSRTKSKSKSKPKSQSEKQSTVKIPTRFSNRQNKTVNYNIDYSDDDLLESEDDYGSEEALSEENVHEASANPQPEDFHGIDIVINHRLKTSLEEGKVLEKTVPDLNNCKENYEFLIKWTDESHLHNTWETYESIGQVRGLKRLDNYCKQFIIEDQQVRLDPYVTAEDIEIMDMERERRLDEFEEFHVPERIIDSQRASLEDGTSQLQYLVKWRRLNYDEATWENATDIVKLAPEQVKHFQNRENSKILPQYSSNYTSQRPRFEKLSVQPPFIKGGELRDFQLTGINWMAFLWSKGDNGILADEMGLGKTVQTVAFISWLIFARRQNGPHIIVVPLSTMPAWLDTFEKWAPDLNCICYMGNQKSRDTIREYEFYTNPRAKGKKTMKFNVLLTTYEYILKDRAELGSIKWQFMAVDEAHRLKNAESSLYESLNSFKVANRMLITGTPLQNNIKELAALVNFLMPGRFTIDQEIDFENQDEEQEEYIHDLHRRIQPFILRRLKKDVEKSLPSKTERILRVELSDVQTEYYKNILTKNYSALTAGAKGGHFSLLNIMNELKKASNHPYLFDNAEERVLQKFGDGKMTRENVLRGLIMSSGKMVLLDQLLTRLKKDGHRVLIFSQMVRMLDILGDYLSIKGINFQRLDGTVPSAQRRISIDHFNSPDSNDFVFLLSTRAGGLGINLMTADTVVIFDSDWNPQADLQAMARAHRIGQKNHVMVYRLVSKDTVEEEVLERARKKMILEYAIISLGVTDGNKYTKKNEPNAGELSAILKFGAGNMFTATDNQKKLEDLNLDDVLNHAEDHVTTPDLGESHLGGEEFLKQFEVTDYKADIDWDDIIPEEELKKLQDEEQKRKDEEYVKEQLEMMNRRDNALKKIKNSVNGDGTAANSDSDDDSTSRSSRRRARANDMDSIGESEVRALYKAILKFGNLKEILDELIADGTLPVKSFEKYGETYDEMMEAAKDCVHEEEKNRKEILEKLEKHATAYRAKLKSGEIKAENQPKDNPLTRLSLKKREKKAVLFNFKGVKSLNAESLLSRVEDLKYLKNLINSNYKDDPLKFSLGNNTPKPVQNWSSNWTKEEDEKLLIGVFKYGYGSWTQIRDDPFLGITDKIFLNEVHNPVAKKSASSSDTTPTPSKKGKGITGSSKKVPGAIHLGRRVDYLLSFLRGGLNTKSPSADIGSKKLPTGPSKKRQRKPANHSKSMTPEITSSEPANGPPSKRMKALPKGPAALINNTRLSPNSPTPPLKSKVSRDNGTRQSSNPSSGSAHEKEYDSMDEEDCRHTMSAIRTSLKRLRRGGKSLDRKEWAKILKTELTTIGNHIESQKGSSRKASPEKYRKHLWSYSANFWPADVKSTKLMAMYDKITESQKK
EXPERIMENTAL_READOUT: Percent Effect (%)
Reply numerically in %, unit not repeated.

Illustrative cases are given below, each with its answer.
COMPOUND	RESULT
Cc1nc(-c2ccc(Cl)s2)sc1C(=O)NCCS(N)(=O)=O	0.478
Cc1cnn(CC2CN(CCc3ccncc3)CCO2)c1 (stereo unspecified)	-0.563
O=C(CCNS(=O)(=O)c1ccc2c(c1)CCCC2)NCc1ccoc1	-6.46
CC(C)Oc1ncnc2c1CCN(C(=O)c1cccn1C)CC2	-0.243
O=C(Nc1cccc(Cl)c1)c1nn(C2CCS(=O)(=O)C2)c2c1CCCC2 (stereo unspecified)	-5.58

Report Percent Effect for `N#Cc1ccc(CN2CCN(C(=O)C3CCC3)[C@@H]3CS(=O)(=O)C[C@@H]32)cc1` please.
-1.71

###

Listed next: entries and their corresponding Percent Effect.
target: Tyrosyl-tRNA synthetase, putative (Trypanosoma cruzi (strain CL Brener)) (UniProt Q4DSP6); experiment: Trypanosoma cruzi tyrosyl tRNA synthetase (TcYRS) _High Tyrosine SOP; type: functional; parameters: scale not given: in the data most compounds retested in dose-response had high values; settings: 30 µM
Sequence (Q4DSP6 as listed by the source): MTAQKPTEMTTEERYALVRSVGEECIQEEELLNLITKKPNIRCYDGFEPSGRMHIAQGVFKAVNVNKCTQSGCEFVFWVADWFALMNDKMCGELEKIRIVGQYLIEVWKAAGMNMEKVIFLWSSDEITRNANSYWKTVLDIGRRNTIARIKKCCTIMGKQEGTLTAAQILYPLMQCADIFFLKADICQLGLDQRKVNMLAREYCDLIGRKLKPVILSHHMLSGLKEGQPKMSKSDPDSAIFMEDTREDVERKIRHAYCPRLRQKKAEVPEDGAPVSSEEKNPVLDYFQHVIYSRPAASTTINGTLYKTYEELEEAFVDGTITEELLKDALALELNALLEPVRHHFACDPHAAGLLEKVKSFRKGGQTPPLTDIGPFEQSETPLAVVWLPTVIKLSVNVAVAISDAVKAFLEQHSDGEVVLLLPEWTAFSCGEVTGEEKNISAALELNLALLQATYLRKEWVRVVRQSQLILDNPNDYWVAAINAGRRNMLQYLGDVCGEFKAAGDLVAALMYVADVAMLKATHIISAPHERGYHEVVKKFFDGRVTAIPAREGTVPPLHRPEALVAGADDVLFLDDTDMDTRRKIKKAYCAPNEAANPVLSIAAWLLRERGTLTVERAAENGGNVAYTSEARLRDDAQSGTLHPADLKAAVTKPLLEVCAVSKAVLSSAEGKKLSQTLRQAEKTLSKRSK
The reply should consist of the numeric value with the unit placed after it.

Illustrative cases are given below, each with its answer.
COMPOUND	Percent Effect
Cc1cc(C)cc(C2(C(=O)N3CCCC(n4cncn4)C3)CC2)c1 (stereo unspecified)	6.93%
Cc1cnn(C2CCCN(C(=O)Cc3cn4ccccc4n3)C2)c1 (stereo unspecified)	1.04%
CN(Cc1ccc(Cl)s1)C(=O)NCc1nnc2n1CCC2	6.4%
CC(=O)N1CCC(c2ccnc(Nc3cncnc3)n2)C1 (stereo unspecified)	7.45%
COc1nccc(N2CCN(Cc3ccc(C)cc3)C(=O)C2)c1C#N	8.6%

Report Percent Effect for `CCN(C)c1ncnc2c1CCN(C(=O)N1CCCC1)CC2` please.
4.17%

###

molecular target: Ubiquitin-activating enzyme e1, putative (Leishmania donovani (strain BPK282A1)) (UniProt E9BSI1); test: Leishmania donovani Ubiquitin Activating Enzyme (LdE1); assay type: functional; design: scale not given: direction of the effect not stated beside the values; details: 30 µM
Sequence (E9BSI1 as listed by the source): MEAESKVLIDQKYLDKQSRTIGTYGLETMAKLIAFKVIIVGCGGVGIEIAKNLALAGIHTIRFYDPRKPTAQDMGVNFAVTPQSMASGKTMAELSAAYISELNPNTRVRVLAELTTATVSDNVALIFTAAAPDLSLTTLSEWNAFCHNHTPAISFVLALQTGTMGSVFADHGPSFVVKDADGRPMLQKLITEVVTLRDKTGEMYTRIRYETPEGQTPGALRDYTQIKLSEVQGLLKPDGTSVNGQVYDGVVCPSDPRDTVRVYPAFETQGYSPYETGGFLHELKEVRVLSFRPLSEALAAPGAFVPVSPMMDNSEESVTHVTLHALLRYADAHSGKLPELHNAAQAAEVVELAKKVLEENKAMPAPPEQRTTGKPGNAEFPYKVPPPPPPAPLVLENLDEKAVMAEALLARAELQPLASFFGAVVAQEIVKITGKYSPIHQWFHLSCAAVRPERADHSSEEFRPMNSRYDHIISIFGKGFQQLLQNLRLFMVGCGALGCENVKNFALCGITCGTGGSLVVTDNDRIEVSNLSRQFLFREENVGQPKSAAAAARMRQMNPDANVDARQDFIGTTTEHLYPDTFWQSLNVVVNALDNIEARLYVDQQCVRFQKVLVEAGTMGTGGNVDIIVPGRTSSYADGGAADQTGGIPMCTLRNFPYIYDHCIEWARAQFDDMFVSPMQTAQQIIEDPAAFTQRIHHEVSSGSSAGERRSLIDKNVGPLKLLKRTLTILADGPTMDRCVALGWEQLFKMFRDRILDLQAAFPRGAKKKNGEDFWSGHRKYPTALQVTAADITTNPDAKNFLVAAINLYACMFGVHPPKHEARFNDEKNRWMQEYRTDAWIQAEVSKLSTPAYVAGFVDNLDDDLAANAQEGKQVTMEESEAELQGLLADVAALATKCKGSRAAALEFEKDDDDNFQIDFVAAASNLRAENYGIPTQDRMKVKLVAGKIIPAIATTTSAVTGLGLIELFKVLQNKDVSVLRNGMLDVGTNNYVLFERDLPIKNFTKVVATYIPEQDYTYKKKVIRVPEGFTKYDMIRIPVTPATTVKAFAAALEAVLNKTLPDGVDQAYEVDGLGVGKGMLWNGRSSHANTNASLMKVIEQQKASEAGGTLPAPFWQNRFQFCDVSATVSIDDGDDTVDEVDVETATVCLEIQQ
Potency and affinity values are given separately.
Listed next: entries and their corresponding Percent Effect.
Reply numerically in %, unit not repeated.

COMPOUND	EXPERIMENTAL_READOUT	UNIT_OF_MEASURE	RESULT
OCC1CCCN1c1cc(N2CCc3ccccc3C2)ncn1 (configuration not stated)	Percent Effect	%	5.2

Report Percent Effect for `CCc1ccccc1-n1cc(O)c(C(=O)N2CCCCC2)n1` please.
-29.7

Report Percent Effect for CCC1CN(CC(=O)Nc2sccc2C#N)CCO1 (configuration not stated) please.
-13.2

Report Percent Effect for CCOCC1CN(C(=O)c2ccncc2)Cc2nn(C)cc21 (configuration not stated) please.
16

Report Percent Effect for `Cn1ccc(C(=O)NC2CCN(c3ncccn3)CC2)cc1=O` please.
13.5

Report Percent Effect for CC(C)NC(=O)N1CCC2(COCc3cnc(-c4cccnc4)nc32)C1 (configuration not stated) please.
2.7

Report Percent Effect for `Cc1ccc(NCc2cncc3c2CCN(C(=O)C2CC=CC2)C3)nn1` please.
5.33

Report Percent Effect for `COC[C@H]1CCC[C@]12CN(C(=O)NCc1ccccc1)CCO2` please.
20

Report Percent Effect for `COCCN1CCC2(CCN(Cc3nccs3)CC2)C1=O` please.
-2.67

Report Percent Effect for COc1ccc(NC(C)C(=O)NCCc2cccs2)cc1F (configuration not stated) please.
-2.74

Report Percent Effect for Cc1cnn(CC2CCCN2C(=O)CCCc2nc(C)no2)c1 (configuration not stated) please.
13.2

Report Percent Effect for CCC(CC)c1cc(C(=O)N2CCCC(n3cncn3)C2)on1 (configuration not stated) please.
-1.39

Report Percent Effect for `CC(C)NC(=O)NCCCc1cc(N)n(-c2ccccc2)n1` please.
5.48

Report Percent Effect for CCNC(c1cccnc1)c1ccc(F)c(F)c1 (configuration not stated) please.
-1.27

Report Percent Effect for CNS(=O)(=O)c1cccc(C(C)NCc2nccn2C(C)C)c1 (configuration not stated) please.
13.5

Report Percent Effect for `Cc1noc(CN2CCC(c3ccnn3CCO)CC2)n1` please.
12.7

Report Percent Effect for `Cc1cccc(OCCC(=O)NCC(C)(C)C(N)=O)c1` please.
10.5

Report Percent Effect for `CCOC(=O)c1sc2ccsc2c1CN` please.
-5.41

Report Percent Effect for `CC(C)OCCCNC(=O)c1ccc(-c2ccco2)[nH]c1=O` please.
10.8

Report Percent Effect for CCCC(NC(=O)c1cc(C)n(C2CC2)c1C)c1nnn[nH]1 (configuration not stated) please.
8

Report Percent Effect for `O=S(=O)(Nc1cnn(C2CCOCC2)c1)c1c(F)cccc1F` please.
-2.6

Report Percent Effect for `COCCNC(=O)[C@H]1CN(Cc2scnc2C)C[C@H]2OCC[C@@H]12` please.
5.48
